Tested on: NCI-H460 lung
MEASUREMENT_NOTES: NCI-60 one-dose screen, 48 h (100 = growth as untreated, 0 = no growth, -100 = all killed)
DETAILS: 10 µM unless noted
About 83,000 compounds went through this panel and 20% of them were active in at least one assay; those are over-represented in the sample as a whole. Calls of active or inactive are those of the source. How the source made its calls: active means growth percent below 10; inactive means the rest.
REPORTED_METRIC: growth

Recorded growth, per entry:
Cc1ccc(/C=C/c2c(C(=O)/C=C/c3ccc(C(F)(F)F)cc3)c(C)nc3ccccc23)cc1: -69.6% (active)
C=CCOC1=CC(=O)c2ccccc2C1=O: 105% (inactive)
COC1=C(OC)C(=O)C(OC)=C(OC)C1=O: 108% (inactive)
COc1ccc2occ(C3=C(c4c[nH]c5ccccc45)C(=O)N(O)C3=O)c2c1: 95.4% (inactive)
CN(C)CC1=NC2SC=C(c3ccccc3)C2C(=O)N1CC#N (stereo not drawn): 115% (inactive)
C[n+]1cccc(CC(=O)NO)c1: 101% (inactive)

Batch of 2 compounds: report growth for each.
1. COc1cccc(C(=O)NCCCNc2cc(-c3cn(-c4ccccc4)nc3-c3cccc(OC)c3)ccn2)c1
2. COc1ccc(/C=C/c2c(C(=O)/C=C/c3cccs3)c(C)nc3ccccc23)cc1

output:
["48.8% (inactive)", "83.6% (inactive)"]
